Experiment: Partition coefficient, log P of the compound
Assay type: physicochemical
Settings: octanol/water
reported.property: logP

Observe how each entry below is paired with its result.
smiles.code	logP
O=C1c2cccnc2C(=O)N1C12CC3CC(CC(C3)C1)C2	2.3
O=C1[C@@H]2C3C=CC(CC3)[C@@H]2C(=O)N1CCc1ccccc1	2.5
CC(C)c1cccc(C(C)C)c1N1C(=O)c2cccnc2C1=O	4.6
O=C1c2nccnc2C(=O)N1C12CC3CC(CC(C3)C1)C2	1.8
Cc1cccc(C)c1N1C(=O)[C@@H]2C3C=CC(CC3)[C@@H]2C1=O	3.1
CC(C)(C)N1C(=O)c2cccnc2C1=O	1.4
CCN1C(=O)[C@@H]2C3C=CC(CC3)[C@@H]2C1=O	0.8
O=C1c2ccccc2C(=O)N1C12CC3CC(CC(C3)C1)C2	2.7

Ask: Looking for the measured logP of CC(C)(C)N1C(=O)c2nccnc2C1=O , can you help?
Result: 0.9

Ask: Do the same for Cc1cccc(C)c1N1C(=O)c2nccnc2C1=O please
Result: 2.7

Ask: Do the same for CC(C)c1cccc(C(C)C)c1N1C(=O)c2ccccc2C1=O please
Result: 5.1

Ask: Do the same for O=C1[C@@H]2C3C=CC(CC3)[C@@H]2C(=O)N1Cc1ccccc1 please
Result: 2.3

Ask: Do the same for Cc1cccc(C)c1N1C(=O)c2cccnc2C1=O please
Result: 3.2

Ask: Do the same for CCCCCc1ccc(N2C(=O)[C@@H]3C4C=CC(CC4)[C@@H]3C2=O)cc1 please
Result: 4.2
